# SUBJECT OF TEST: xanthine oxidase (XO) enzyme (bovine milk) (Bos taurus, UniProt P80457)
# Construct: 20 µL of 0.2 unit XO enzyme (bovine milk) in buffer; from tissue; host or cells: bovine milk
# Sequence (P80457 whole entry): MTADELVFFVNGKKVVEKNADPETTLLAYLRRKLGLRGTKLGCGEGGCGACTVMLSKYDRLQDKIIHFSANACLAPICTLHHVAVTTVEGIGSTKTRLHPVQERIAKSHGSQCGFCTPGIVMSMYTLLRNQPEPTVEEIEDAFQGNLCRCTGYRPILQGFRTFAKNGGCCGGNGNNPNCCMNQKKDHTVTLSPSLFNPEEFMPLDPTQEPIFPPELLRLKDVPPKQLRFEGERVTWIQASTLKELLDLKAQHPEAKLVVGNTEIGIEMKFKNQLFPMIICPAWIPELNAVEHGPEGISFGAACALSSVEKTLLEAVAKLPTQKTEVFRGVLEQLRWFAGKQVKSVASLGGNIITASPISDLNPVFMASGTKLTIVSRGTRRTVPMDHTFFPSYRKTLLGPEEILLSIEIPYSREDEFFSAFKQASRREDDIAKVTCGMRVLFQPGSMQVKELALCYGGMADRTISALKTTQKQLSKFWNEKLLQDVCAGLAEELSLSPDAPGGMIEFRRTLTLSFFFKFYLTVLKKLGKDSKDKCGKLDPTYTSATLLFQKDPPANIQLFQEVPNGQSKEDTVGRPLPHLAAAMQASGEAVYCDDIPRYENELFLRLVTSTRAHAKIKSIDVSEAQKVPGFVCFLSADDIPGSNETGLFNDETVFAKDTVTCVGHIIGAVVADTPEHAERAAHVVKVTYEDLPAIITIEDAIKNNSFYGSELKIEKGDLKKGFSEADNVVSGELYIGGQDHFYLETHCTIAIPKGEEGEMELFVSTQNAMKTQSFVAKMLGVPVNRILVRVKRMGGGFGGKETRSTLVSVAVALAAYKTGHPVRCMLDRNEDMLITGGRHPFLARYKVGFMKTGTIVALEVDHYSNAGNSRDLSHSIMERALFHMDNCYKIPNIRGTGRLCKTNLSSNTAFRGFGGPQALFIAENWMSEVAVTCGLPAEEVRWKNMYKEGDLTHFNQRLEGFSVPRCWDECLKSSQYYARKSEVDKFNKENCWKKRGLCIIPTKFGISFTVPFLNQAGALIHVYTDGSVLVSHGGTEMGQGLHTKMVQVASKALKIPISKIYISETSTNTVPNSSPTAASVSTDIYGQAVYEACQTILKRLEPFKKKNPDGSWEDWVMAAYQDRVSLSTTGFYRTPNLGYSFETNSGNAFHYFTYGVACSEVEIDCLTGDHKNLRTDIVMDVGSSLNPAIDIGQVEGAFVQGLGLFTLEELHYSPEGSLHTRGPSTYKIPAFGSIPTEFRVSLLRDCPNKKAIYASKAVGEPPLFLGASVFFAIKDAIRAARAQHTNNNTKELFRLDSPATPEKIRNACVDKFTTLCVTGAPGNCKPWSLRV
# METHOD DESCRIPTION: In vitro xanthine oxidase (XO) assay, uric acid formation at 295 nm with xanthine as substrate
# Type: biochemical
# ASSAY CONDITIONS: sample concentration 100 µM for each compound; read-out: Xanthine Oxidase Inhibition %
We begin with a simple list: items and their reported inhibition at 100 µM.
OBSERVED PROPERTY: inhibition at 100 µM (%)

[[record]]
compound = "O=c1c(O[C@@H]2O[C@H](CO)[C@@H](O)[C@H](O)[C@H]2O)c(-c2ccc(O)c(O)c2)oc2cc(O)cc(O)c12 [Compound 2, quercetin-3-O-β-D-glucopyranoside]"
experimental_result = 47.8

[[record]]
compound = "C[C@@H]1O[C@@H](OC[C@H]2O[C@@H](Oc3c(-c4ccc(O)c(O)c4)oc4cc(O)cc(O)c4c3=O)[C@H](O)[C@@H](O)[C@@H]2O)[C@H](O)[C@H](O)[C@H]1O [Compound 1, quercetin-3-O-rutinoside]"
experimental_result = 42.9

[[record]]
compound = "O=c1[nH]c(=O)c2c[nH]nc2[nH]1 [Oxypurinol, oxypurinol, reference compound]"
experimental_result = 87.6

[[record]]
compound = "O=C(OC[C@H]1O[C@@H](OC(=O)c2cc(O)c(O)c(O)c2)[C@H](OC(=O)c2cc(O)c(O)c(O)c2)[C@@H](OC(=O)c2cc(O)c(O)c(O)c2)[C@@H]1OC(=O)c1cc(O)c(O)c(O)c1)c1cc(O)c(O)c(O)c1"
experimental_result = 96.4

